target: L-lactate dehydrogenase A chain (Homo sapiens); test: Inhibition of LDH-A (unknown origin) in absence of 0.1% Triton
METRIC: IC50
Give your result as the value with the unit written after it.

Query string: Record request: IC50 value, item COc1cc(OC[C@@H](O)[C@@H](O)[C@H](O)[C@H](O)COc2cc(F)cc(-c3ccc(C(=O)O)cn3)c2)c(Cl)cc1NC(=O)CSc1ccc(C(=O)O)cn1
Result string: 220 nM

---

Notes on Kd obtained with L-lactate dehydrogenase A chain (Homo sapiens, UniProt P00338).
Expressed in µM, but write only the number.

Query string: Record request: Kd value, item COc1cc(OC[C@H](O)[C@H](O)[C@@H](O)[C@@H](O)COc2cc(F)cc(-c3ccc(C(=O)O)cn3)c2)c(Cl)cc1NC(=O)CSc1ccc(C(=O)O)cn1
Result string: 12

Query string: Record request: Kd value, item COc1cc(OCCCOCCCOc2cc(F)cc(-c3ccc(C(=O)O)cn3)c2)c(Cl)cc1NC(=O)CSc1ccc(C(=O)O)cn1
Result string: 0.85

Query string: Record request: Kd value, item O=C(O)COc1cc(F)cc(-c2ccc(C(=O)O)cn2)c1
Result string: 1300
